Species on record: Rattus norvegicus
Assay: animal or person
Format: functional
Description: Antiinflammatory activity in rat assessed as inhibition of carrageenan-induced foot edema at 30 mg/kg
I would appreciate it if you labelled entries Criterion met when inhibition in vivo at 30 mg/kg is 20% or higher, otherwise Criterion not met.

# count of solved cases: 2
> print(dat)
               smiles.structure  assigned.label
1    Fc1cccc(F)c1-c1nc2cccnc2o1   Criterion met
2  Fc1ccc(-c2nc3ncccc3o2)c(F)c1   Criterion met

Evaluate "Fc1ccc(-c2nc3cccnc3o2)cc1" : inhibition in vivo at 30 mg/kg at minimum 20%?
Criterion met

----------
Species on record: Rattus norvegicus
Experiment: animal or person
Type: functional
The threshold is inclusive: inhibition in vivo at 30 mg/kg of exactly 10% counts as MET; values below receive NOT MET.

> print(dat)
            smiles.structure  assigned.label
1  Fc1cccc(-c2nc3cccnc3o2)c1             MET
2  Cc1ccc(-c2nc3ncccc3o2)cc1         NOT MET
3  Cc1ccc(-c2nc3cccnc3o2)cc1         NOT MET
4  Fc1ccc(-c2nc3ncccc3o2)cc1             MET

With those in mind, consider the next molecule.
Is it the case that "N#Cc1cccc(F)c1-c1nc2ncccc2o1" has inhibition in vivo at 30 mg/kg reaching or exceeding 10%?
MET

----------
Assay: Acute toxicity in po dosed mouse
Details: in vivo
parameter-measured: LD50 (mg/kg)
Use mg/kg as the unit, but write only the number.

# annotated cases, reported LD50 shown
> print(dat)
                                   molecule  recorded.measurement
1  CC(C)Cc1ccc(C(C)C(=O)O)cc1 (stereo not drawn)                  1370
2  COc1ccc2c(c1)c(CC(=O)O)c(C)n2C(=O)c1ccc(Cl)cc1                    50
3                Fc1cccc(F)c1-c1nc2ncccc2o1                   709

Please turn your attention to the following entry.
Input "Fc1ccccc1-c1nc2ncccc2o1" , output reported LD50.
556

----------
Organism: Rattus norvegicus
Test: animal or person
Format: functional
Mark YES for reported inhibition in vivo at 30 mg/kg of 30% or greater; mark NO for anything smaller.

> print(dat)
             smiles.structure  assigned.label
1  COc1cccc(-c2nc3ncccc3o2)c1              NO

Could you tell me if the measured inhibition in vivo at 30 mg/kg of "Fc1ccccc1-c1nc2ncccc2o1" reaches 30% or more?
YES

Dear colleague, could you confirm whether "COc1cccc(-c2nc3cccnc3o2)c1" has inhibition in vivo at 30 mg/kg at or above 30%?
NO

Dear colleague, could you confirm whether "c1ccc(-c2nc3cccnc3o2)cc1" has inhibition in vivo at 30 mg/kg at or above 30%?
YES

Could you verify whether the entry "Clc1ccc(-c2nc3ncccc3o2)cc1" shows inhibition in vivo at 30 mg/kg of no less than 30%?
NO

----------
# inhibition in vivo at 30 mg/kg listing for each entry below
Organism: Rattus norvegicus
Assay: animal or person
Assay type: functional
Dear colleague, please return just the value in %, with no unit written.

Solved cases below.
> print(dat)
                       smiles.structure              parameter.measured  recorded.measurement
1          Clc1cccc(Cl)c1-c1nc2ncccc2o1  inhibition in vivo at 30 mg/kg                    14
2  O=[N+]([O-])c1ccc(-c2nc3cccnc3o2)cc1  inhibition in vivo at 30 mg/kg                     5
3            COc1ccc(-c2nc3ncccc3o2)cc1  inhibition in vivo at 30 mg/kg                    14
4            Fc1cccc(F)c1-c1nc2ncccc2o1  inhibition in vivo at 30 mg/kg                    66
5            Clc1cccc(-c2nc3cccnc3o2)c1  inhibition in vivo at 30 mg/kg                     8
6              Clc1ccccc1-c1nc2cccnc2o1  inhibition in vivo at 30 mg/kg                    50

For the compound "CSc1ccccc1-c1nc2ncccc2o1" , give its measured inhibition in vivo at 30 mg/kg value.
21

For the compound "Nc1ccccc1-c1nc2cccnc2o1" , report inhibition in vivo at 30 mg/kg.
13

In one line, give reported inhibition in vivo at 30 mg/kg of the entry "Brc1cccc(-c2nc3ncccc3o2)c1" .
23
